- PROTOCOL SUMMARY: Water solubility of the prepared salts
- Type: physicochemical
ASSAY METRIC: solubility in water

Consider the worked cases shown below.
| COMPOUND | ASSAY METRIC | RESULT |
| --- | --- | --- |
| C=CC1=C(C)c2cc3[n-]c(cc4nc(cc5[n-]c(cc1n2)c(C)c5CCC(=O)[O-])C(CCC(=O)[O-])=C4C)c(C)c3C=C.[Cl-].[Fe+3].[Zn+2] [Example 18, zinc chlorhematin] | solubility in water | slightly soluble |
| C=CC1=C(C)c2cc3[n-]c(cc4nc(cc5[n-]c(cc1n2)c(C)c5CCC(=O)[O-])C(CCC(=O)[O-])=C4C)c(C)c3C=C.[Cl-].[Fe+2].[Fe+3] [Example 16, ferrous chlorhematin] | solubility in water | slightly soluble |
| C=CC1=C(C)c2cc3[n-]c(cc4[n-]c(cc5nc(cc1n2)C(C)=C5C=C)c(C)c4CCC(=O)O)c(CCC(=O)O)c3C.[Fe+2] [Example 6, ferrous protoporphyrin] | solubility in water | soluble |
| C=CC1=C(C)c2cc3[n-]c(cc4nc(cc5[n-]c(cc1n2)c(C)c5C=C)C(C)=C4CCC(=O)[O-])c(CCC(=O)[O-])c3C.[Cl-].[Fe+3].[Mg+2] [Example 13, magnesium chlorhematin] | solubility in water | soluble |
| C=CC1=C(C)c2cc3[nH]c(cc4nc(cc5[nH]c(cc1n2)c(C)c5C=C)C(C)=C4CCC(=O)[O-])c(CCC(=O)[O-])c3C.[Cu+2] [Example 9, copper protoporphyrin] | solubility in water | slightly soluble |
| C=CC1=C(C)c2cc3[n-]c(cc4nc(cc5[n-]c(cc1n2)c(C)c5C=C)C(C)=C4CCC(=O)[O-])c(CCC(=O)[O-])c3C.[Cl-].[Fe+3].[Mn+2] [Example 15, manganese chlorhematin] | solubility in water | slightly soluble |
| C=CC1=C(C)c2cc3[nH]c(cc4nc(cc5[nH]c(cc1n2)c(C)c5C=C)C(C)=C4CCC(=O)[O-])c(CCC(=O)[O-])c3C.[Mn+2] [Example 5, manganese protoporphyrin] | solubility in water | soluble |
| C=CC1=C(C)c2cc3[nH]c(cc4nc(cc5[nH]c(cc1n2)c(C)c5C=C)C(C)=C4CCC(=O)[O-])c(CCC(=O)[O-])c3C.[Ca+2] [Example 4, calcium protoporphyrin] | solubility in water | soluble |
| C=CC1=C(C)c2cc3[n-]c(cc4nc(cc5[n-]c(cc1n2)c(C)c5C=C)C(C)=C4CCC(=O)[O-])c(CCC(=O)[O-])c3C.[Cl-].[Fe+3].[K+].[K+] [Example 10, potassium chlorhematin] | solubility in water | easily soluble |
| C=CC1=C(C)c2cc3[nH]c(cc4nc(cc5[nH]c(cc1n2)c(C)c5C=C)C(C)=C4CCC(=O)O)c(CCC(=O)O)c3C.N.N [Example 2, ammonium protoporphyrin] | solubility in water | easily soluble |

Recorded solubility in water of C=CC1=C(C)c2cc3[n-]c(cc4nc(cc5[n-]c(cc1n2)c(C)c5C=C)C(C)=C4CCC(=O)[O-])c(CCC(=O)[O-])c3C.[Fe+3].[Na+].[Na+].[OH-] [Sodium hydroxyhematin, sodium hydroxyhematin, reference compound] , please. easily soluble

Recorded solubility in water of C=CC1=C(C)c2cc3[n-]c(cc4nc(cc5[n-]c(cc1n2)c(C)c5C=C)C(C)=C4CCC(=O)[O-])c(CCC(=O)[O-])c3C.[Cl-].[Fe+3].[NH4+].[NH4+] [Example 12, ammonium chlorhematin] , please. easily soluble

Recorded solubility in water of C=CC1=C(C)c2cc3[n-]c(cc4nc(cc5[n-]c(cc1n2)c(C)c5CCC(=O)[O-])C(CCC(=O)[O-])=C4C)c(C)c3C=C.[Cl-].[Cu+2].[Fe+3] [Example 19, copper chlorhematin] , please. slightly soluble

----------
- PROTOCOL SUMMARY: Stability of sample solutions in the dark/under light
- Type: physicochemical
- PARTICULARS: under light 30,000 lux, 3 h; salts in water, acidic reference in 30% to 50% ethanol
Recorded Relative content for the following molecules
Kindly answer with a numeric value in %, unit omitted.

| MOLECULE | ASSAY METRIC | UNIT | MEASURED NUMBER |
| --- | --- | --- | --- |
| C=CC1=C(C)c2cc3[n-]c(cc4nc(cc5[n-]c(cc1n2)c(C)c5C=C)C(C)=C4CCC(=O)[O-])c(CCC(=O)[O-])c3C.[Fe+3].[Na+].[Na+].[OH-] [Sodium hydroxyhematin, sodium hydroxyhematin, reference compound] | Relative content | % | 57.03 |
| C=CC1=C(C)c2cc3[n-]c(cc4nc(cc5[n-]c(cc1n2)c(C)c5C=C)C(C)=C4CCC(=O)[O-])c(CCC(=O)[O-])c3C.[Cl-].[Fe+3].[NH4+].[NH4+] [Example 12, ammonium chlorhematin] | Relative content | % | 66.25 |
| C=CC1=C(C)c2cc3[n-]c(cc4nc(cc5[n-]c(cc1n2)c(C)c5CCC(=O)[O-])C(CCC(=O)[O-])=C4C)c(C)c3C=C.[Cl-].[Fe+3].[Zn+2] [Example 18, zinc chlorhematin] | Relative content | % | 92.74 |
| C=CC1=C(C)c2cc3[nH]c(cc4nc(cc5[nH]c(cc1n2)c(C)c5C=C)C(C)=C4CCC(=O)[O-])c(CCC(=O)[O-])c3C.[Cu+2] [Example 9, copper protoporphyrin] | Relative content | % | 94.88 |
| C=CC1=C(C)c2cc3[n-]c(cc4nc(cc5[n-]c(cc1n2)c(C)c5C=C)C(C)=C4CCC(=O)[O-])c(CCC(=O)[O-])c3C.[Ca+2].[Cl-].[Fe+3] [Example 14, calcium chlorhematin] | Relative content | % | 81.97 |

Recorded Relative content of C=CC1=C(C)c2cc3[n-]c(cc4nc(cc5[n-]c(cc1n2)c(C)c5C=C)C(C)=C4CCC(=O)[O-])c(CCC(=O)[O-])c3C.[Cl-].[Fe+3].[Na+].[Na+] [Example 11, sodium chlorhematin] , please. 67.73

Recorded Relative content of C=CC1=C(C)c2cc3[nH]c(cc4nc(cc5[nH]c(cc1n2)c(C)c5C=C)C(C)=C4CCC(=O)[O-])c(CCC(=O)[O-])c3C.[Ca+2] [Example 4, calcium protoporphyrin] , please. 85.89

Recorded Relative content of C=CC1=C(C)c2cc3[n-]c(cc4[n-]c(cc5nc(cc1n2)C(C)=C5C=C)c(C)c4CCC(=O)O)c(CCC(=O)O)c3C.[Cl-].[Fe+3] [Chlorhematin, chlorhematin, reference compound] , please. 20.21

Recorded Relative content of C=CC1=C(C)c2cc3[nH]c(cc4nc(cc5[nH]c(cc1n2)c(C)c5C=C)C(C)=C4CCC(=O)[O-])c(CCC(=O)[O-])c3C.[Mn+2] [Example 5, manganese protoporphyrin] , please. 88.85

Recorded Relative content of C=CC1=C(C)c2cc3[n-]c(cc4nc(cc5[n-]c(cc1n2)c(C)c5CCC(=O)[O-])C(CCC(=O)[O-])=C4C)c(C)c3C=C.[Cl-].[Cu+2].[Fe+3] [Example 19, copper chlorhematin] , please. 93.04

Recorded Relative content of C=CC1=C(C)c2cc3[n-]c(cc4nc(cc5[n-]c(cc1n2)c(C)c5C=C)C(C)=C4CCC(=O)O)c(CCC(=O)O)c3C.[Zn+2] [Example 8, zinc protoporphyrin] , please. 86.51

Recorded Relative content of C=CC1=C(C)c2cc3[nH]c(cc4nc(cc5[nH]c(cc1n2)c(C)c5C=C)C(C)=C4CCC(=O)O)c(CCC(=O)O)c3C.N.N [Example 2, ammonium protoporphyrin] , please. 45.99

----------
- PROTOCOL SUMMARY: Stability of sample solutions in the dark/under light
- Type: physicochemical
- PARTICULARS: under light 30,000 lux, 2 h; salts in water, acidic reference in 30% to 50% ethanol
ASSAY METRIC: Relative content (%)
Kindly answer with a numeric value in %, unit omitted.

| COMPOUND | ASSAY METRIC | UNIT | MEASURED NUMBER |
| --- | --- | --- | --- |
| C=CC1=C(C)c2cc3[n-]c(cc4nc(cc5[n-]c(cc1n2)c(C)c5CCC(=O)[O-])C(CCC(=O)[O-])=C4C)c(C)c3C=C.[Cl-].[Fe+3].[Zn+2] | Relative content | % | 93.10 |
| C=CC1=C(C)c2cc3[n-]c(cc4nc(cc5[n-]c(cc1n2)c(C)c5C=C)C(C)=C4CCC(=O)[O-])c(CCC(=O)[O-])c3C.[Cl-].[Fe+3].[NH4+].[NH4+] | Relative content | % | 67.80 |
| C=CC1=C(C)c2cc3[n-]c(cc4nc(cc5[n-]c(cc1n2)c(C)c5C=C)C(C)=C4CCC(=O)[O-])c(CCC(=O)[O-])c3C.[Cl-].[Fe+3].[Mn+2] | Relative content | % | 82.32 |
| C=CC1=C(C)c2cc3[n-]c(cc4nc(cc5[n-]c(cc1n2)c(C)c5C=C)C(C)=C4CCC(=O)O)c(CCC(=O)O)c3C.[Zn+2] | Relative content | % | 89.52 |
| C=CC1=C(C)c2cc3[nH]c(cc4nc(cc5[nH]c(cc1n2)c(C)c5C=C)C(C)=C4CCC(=O)[O-])c(CCC(=O)[O-])c3C.[Cu+2] | Relative content | % | 95.56 |
| C=CC1=C(C)c2cc3[n-]c(cc4nc(cc5[n-]c(cc1n2)c(C)c5C=C)C(C)=C4CCC(=O)[O-])c(CCC(=O)[O-])c3C.[Ca+2].[Cl-].[Fe+3] | Relative content | % | 81.78 |

Recorded Relative content of C=CC1=C(C)c2cc3[n-]c(cc4nc(cc5[n-]c(cc1n2)c(C)c5CCC(=O)[O-])C(CCC(=O)[O-])=C4C)c(C)c3C=C.[Cl-].[Cu+2].[Fe+3] , please. 95.03

Recorded Relative content of C=CC1=C(C)c2cc3[nH]c(cc4nc(cc5[nH]c(cc1n2)c(C)c5C=C)C(C)=C4CCC(=O)[O-])c(CCC(=O)[O-])c3C.[Ca+2] , please. 87.11

Recorded Relative content of C=CC1=C(C)c2cc3[nH]c(cc4nc(cc5[nH]c(cc1n2)c(C)c5C=C)C(C)=C4CCC(=O)[O-])c(CCC(=O)[O-])c3C.[Mn+2] , please. 90.09

Recorded Relative content of C=CC1=C(C)c2cc3[n-]c(cc4nc(cc5[n-]c(cc1n2)c(C)c5C=C)C(C)=C4CCC(=O)[O-])c(CCC(=O)[O-])c3C.[Fe+3].[Na+].[Na+].[OH-] [Sodium hydroxyhematin, sodium hydroxyhematin, reference compound] , please. 62.33

Recorded Relative content of C=CC1=C(C)c2cc3[n-]c(cc4[n-]c(cc5nc(cc1n2)C(C)=C5C=C)c(C)c4CCC(=O)O)c(CCC(=O)O)c3C.[Cl-].[Fe+3] [Chlorhematin, chlorhematin, reference compound] , please. 21.64

Recorded Relative content of C=CC1=C(C)c2cc3[nH]c(cc4nc(cc5[nH]c(cc1n2)c(C)c5C=C)C(C)=C4CCC(=O)O)c(CCC(=O)O)c3C.N.N , please. 48.76

Recorded Relative content of C=CC1=C(C)c2cc3[nH]c(cc4nc(cc5[nH]c(cc1n2)c(C)c5CCC(=O)O)C(CCC(=O)O)=C4C)c(C)c3C=C [Protoporphyrin disodium, protoporphyrin disodium, reference compound] , please. 62.74
